Species on record: Oryctolagus cuniculus
protocolNotes: Dermal toxicity in rabbit skin
Format: organism-based
assayContext: in vivo
Provide the recorded ED50 for the entries that follow.

Solved entries:
CC(=O)OC[C@]12C[C@H](OC(=O)CC(C)C)C(C)=C[C@H]1O[C@@H]1[C@H](O)[C@@H](O)[C@@]2(C)[C@]12CO2 [HT-2 TOXIN]; 0.16 µg
CC(=O)OC[C@]12C[C@H](O)C(C)=C[C@H]1O[C@@H]1[C@H](O)[C@@H](O)[C@@]2(C)[C@]12CO2; > 1.28 µg
CC1=C[C@H]2O[C@@H]3[C@H](O)[C@@H](O)[C@](C)([C@@]2(CO)C[C@@H]1OC(=O)CC(C)(C)O)[C@]31CO1; > 1.28 µg
CC(=O)OC[C@]12C[C@H](OC(=O)CC(C)(C)O)C(C)=C[C@H]1O[C@@H]1[C@H](O)[C@@H](O)[C@@]2(C)[C@]12CO2; > 1.28 µg

// each molecule listed below needs its ED50
1. CC1=C[C@H]2O[C@@H]3[C@H](O)[C@@H](O)[C@](C)([C@@]2(CO)C[C@@H]1O)[C@]31CO1
2. CC(=O)OC[C@]12C[C@H](OC(=O)CC(C)C)C(C)=C[C@H]1O[C@@H]1[C@H](O)[C@@H](OC(C)=O)[C@@]2(C)[C@]12CO2 [T-2 TOXIN]

1. > 1.28 µg
2. < 0.16 µg

###

protocolNotes: Toxicity in Triticum aestivum assessed as inhibition of coleoptiles growth at 1 mM
Type: organism-based
assayContext: Triticum aestivum coleoptiles, read-out: Activity
measure: inhibition at 1000 µM (%)
One number for each entry, in %.

Give its inhibition at 1000 µM value. Item: CC(=O)OC[C@]12C[C@H](O)C(C)=C[C@H]1O[C@@H]1[C@H](O)[C@@H](O)[C@@]2(C)[C@]12CO2
59
